Measured TGI, listed per entry.
- Test system: SF-539 CNS
- testName: NCI tumour cell line growth inhibition, 48 h

Guide cases for TGI, answers given:
{"recordSmiles": "NCCN1CC2CCC(CC2)C1", "TGI": "> 10 µM"}
{"recordSmiles": "O=C(c1ccccc1)c1nc2ccc(C(F)(F)F)cc2[n+]([O-])c1C(F)(F)F", "TGI": "> 100 µM"}
{"recordSmiles": "C=CC[C@@]1(C)CCCCCCCCC[C@@](C)(CC=C)C1=O", "TGI": "> 100 µM"}
{"recordSmiles": "c1ccc(-c2nnc(-c3nsc4ccccc34)o2)cc1", "TGI": "> 100 µM"}
{"recordSmiles": "COc1ccc(/C=C2\\N=C(NN)N=C2Cl)cc1", "TGI": "> 100 µM"}
{"recordSmiles": "CN(C)C(=O)Oc1ccc(-c2cn3cc(NC(=O)c4ccccc4)ccc3n2)cc1", "TGI": "> 100 µM"}
{"recordSmiles": "CC(=O)NNc1nc(C)c(C(/C=C/c2ccc(Cl)cc2)=N/NC(=O)C[N+](C)(C)C)s1", "TGI": "> 100 µM"}
{"recordSmiles": "Cc1ccc(O)c(C(=O)CCCC(=O)c2cc(C)ccc2O)c1", "TGI": "> 100 µM"}
{"recordSmiles": "Cc1cc(C)nc(SC2=C(Nc3cccc(Cl)c3C)C(=O)N(Cc3ccccc3)C2=O)n1", "TGI": "> 160 µM"}

Moving on to the next molecule.
Exercise: I would be grateful if you could share the reported TGI for "O=c1[nH]n(Cc2ccccn2)c2ccc([N+](=O)[O-])cc12" .
Solution: > 100 µM

* * *

- Tested on: DU-145 prostate
- testName: NCI tumour cell line growth inhibition, 48 h
measuredMetric: TGI (µM)
The reply should contain only the number, in µM.

Guide cases for TGI, answers given:
{"molecule": "COc1cc(/C=C/c2cc(/C=C/c3ccc(O)c(OC)c3)oc(=O)c2)ccc1O", "TGI, µM": 6.82}
{"molecule": "CCCCCC/C=C\\CCCCCCCCCC1=CC(=O)C=C(OC)C1=O", "TGI, µM": 38}

Exercise: I would be grateful if you could share the reported TGI for CC1=C[S+](c2ccccc2)c2cccc3cc4ccccc4c1c23 (stereo unspecified) .
Solution: 2.13

* * *

- System: T-47D breast
- testName: NCI tumour cell line growth inhibition, 48 h
measuredMetric: TGI

Guide cases for TGI, answers given:
{"compound": "Cc1nc(N)sc1C(=O)Nc1cc(C(=O)NCCCN(C)C)n(C)c1", "testedTarget": "T-47D breast", "TGI": "> 100 µM"}
{"compound": "C=C1C(=O)O[C@H]2[C@H]1CC/C(COC(=O)c1ccc(C#N)cc1)=C\\CC[C@@]1(C)O[C@@H]21", "testedTarget": "T-47D breast", "TGI": "5.24 µM"}
{"compound": "N#Cc1ccc(C(c2ccc(C#N)cc2)n2cncn2)cc1", "testedTarget": "T-47D breast", "TGI": "> 5000 µM"}
{"compound": "COc1ccccc1S(=O)(=O)Nc1ccc2c(c1)CN(C)C(=O)N2", "testedTarget": "T-47D breast", "TGI": "> 100 µM"}
{"compound": "O=C1/C(=C/c2ccc(Cl)cc2)N=C(c2ccccc2)N1c1ccc(S(=O)(=O)Nc2nccs2)cc1", "testedTarget": "T-47D breast", "TGI": "75.2 µM"}

Exercise: I would be grateful if you could share the reported TGI for "N[C@@H]1CCCN(c2c(/C=C3\SC(=O)NC3=O)cccc2-c2ccccc2)C1" .
Solution: 28.8 µM

Exercise: I would be grateful if you could share the reported TGI for "Cc1nc2n(c(=O)c1CCN1CCC(c3noc4cc(F)ccc34)CC1)CCCC2" .
Solution: > 50 µM

Exercise: I would be grateful if you could share the reported TGI for "O=C(c1ccccc1)c1sc2c(=O)c(C(=O)c3ccccc3)c(C(=O)c3ccccc3)sc2c(=O)c1C(=O)c1ccccc1" .
Solution: > 100 µM

Exercise: I would be grateful if you could share the reported TGI for CC(C)NCCC(O)c1cc2ccccc2o1 (stereo not drawn) .
Solution: > 100 µM

Exercise: I would be grateful if you could share the reported TGI for N#CC(Cc1ccccc1Br)N(CCC1=CCCCC1)C(c1ccccc1)c1ccccc1 (stereo not drawn) .
Solution: > 100 µM

Exercise: I would be grateful if you could share the reported TGI for "O=C1C(Cl)=C(Nc2cccc(O)c2)C(=O)N1c1ccccc1Cl" .
Solution: > 100 µM

Exercise: I would be grateful if you could share the reported TGI for COc1ccc2c(c1)CCC1=CC3(CCC12C)SCCS3 (stereo not drawn) .
Solution: > 10 µM

Exercise: I would be grateful if you could share the reported TGI for "O=C(Nc1ccccc1F)c1cc2ccc(O)cc2oc1=Nc1cccc(C(F)(F)F)c1" .
Solution: 15.8 µM

* * *

- System: U251 CNS
- testName: NCI tumour cell line growth inhibition, 48 h
Measured TGI, listed per entry.

Guide cases for TGI, answers given:
{"compound": "COc1cc2c(cc1O)[C@@H]1Cc3c(cc(OC)c(OC)c3Oc3cc4c(cc3OC)CCN(C)[C@@H]4Cc3ccc(O)cc3)[C@H](C2)N1C", "measuredMetric": "TGI", "measured": "> 100 µM"}
{"compound": "CCN1C(=O)N(c2ccccc2)C2NN=c3s/c(=C4\\C(=O)N(C(C)C)c5ccccc54)c(=O)n3C21 (stereo not drawn)", "measuredMetric": "TGI", "measured": "> 51.6 µM"}
{"compound": "Cc1cc(C)nc(SC2=C(Nc3cccc(Cl)c3C)C(=O)N(Cc3ccccc3)C2=O)n1", "measuredMetric": "TGI", "measured": "> 160 µM"}
{"compound": "COC(=O)c1ccc(Cc2ccc(C(=O)OC)o2)o1", "measuredMetric": "TGI", "measured": "> 378 µM"}
{"compound": "C=CC(C)CCC(C/C=C(\\C)CCC=C(C)C)C(=C)CCCC(C)C (stereo not drawn)", "measuredMetric": "TGI", "measured": "> 100 µM"}

Exercise: Record lookup: for U251 CNS, what TGI belongs to COc1cccc(CC2Cc3ccccc3CC(=O)N2)c1 (stereo not drawn) ?
Solution: > 100 µM

Exercise: Record lookup: for U251 CNS, what TGI belongs to NC(=O)c1[nH]cnc1/N=N/SCC(N)C(=O)O (stereo not drawn) ?
Solution: > 100 µM

Exercise: Record lookup: for U251 CNS, what TGI belongs to "C=CCN(C)CN(C)c1nc(N(C)C)nc(N(C)C)n1" ?
Solution: > 100 µM

Exercise: Record lookup: for U251 CNS, what TGI belongs to "O=C(NO)C(=O)Nc1ccc(Cl)cc1[N+](=O)[O-]" ?
Solution: > 100 µM

* * *

- Tested on: RXF 393 renal
- testName: NCI tumour cell line growth inhibition, 48 h; in the data active = GI50 below about 0.43 µM; inactive = the rest
Write down one outcome, taken from true (active), false (inactive)

Reference set, count: 3
{"recordSmiles": "O=C(OCc1ccc2c(Cl)cc(Cl)c(O)c2n1)c1cc2ccccc2[nH]1", "testedTarget": "RXF 393 renal", "assignedLabel": "true"}
{"recordSmiles": "CCC(C(=O)[O-])C(=O)[O-].CCC(C(=O)[O-])C(=O)[O-].N.N.NCCCCCCN.[Pt+4].[Pt+4]", "testedTarget": "RXF 393 renal", "assignedLabel": "false"}
{"recordSmiles": "Cc1nc(N)sc1C(=O)Nc1cc(C(=O)NCCCN(C)C)n(C)c1", "testedTarget": "RXF 393 renal", "assignedLabel": "false"}

Exercise: I'd appreciate the recorded outcome for "C#Cc1cccc(Nc2nc3ccc([N+](=O)[O-])cc3nc2Nc2cccc(C#C)c2)c1" from this test.
Solution: true

* * *

- Test system: NCI-H522 lung
- testName: NCI tumour cell line growth inhibition, 48 h
measuredMetric: TGI

Guide cases for TGI, answers given:
{"compound": "NC(=Nc1ccc(O)cc1)S(=O)O", "testedTarget": "NCI-H522 lung", "TGI": "> 100 µM"}
{"compound": "CN1CCC23c4c5ccc(O)c4OC2c2[nH]c4ccccc4c2CC3(O)C1C5 (stereo not given)", "testedTarget": "NCI-H522 lung", "TGI": "> 100 µM"}
{"compound": "COC(OC)[C@@H](C)[C@H](O)[C@](C)(O)C1OC(C)(C)OC(C(C)C=C(C)C)C1C (stereo not given in full)", "testedTarget": "NCI-H522 lung", "TGI": "> 100 µM"}
{"compound": "CCOC(=O)C1=C(C)N(NC(N)=O)C2(O)CCCC(=O)C12C (stereo not given)", "testedTarget": "NCI-H522 lung", "TGI": "> 100 µM"}
{"compound": "COc1ccc(C(=O)c2cc3c(N)c(C(=O)Nc4cccc(Cl)c4C)sc3nc2C)cc1", "testedTarget": "NCI-H522 lung", "TGI": "> 6.78 µM"}
{"compound": "Cc1ccc(O)c(C(=O)CCCC(=O)c2cc(C)ccc2O)c1", "testedTarget": "NCI-H522 lung", "TGI": "> 100 µM"}
{"compound": "NC(=O)NC(=O)c1cccc(NC(=O)CBr)c1", "testedTarget": "NCI-H522 lung", "TGI": "< 0.01 µM"}
{"compound": "CCN1C(=O)N(c2ccccc2)C2NN=c3s/c(=C4\\C(=O)N(C(C)C)c5ccccc54)c(=O)n3C21 (stereo not given)", "testedTarget": "NCI-H522 lung", "TGI": "> 77.9 µM"}

Exercise: I would be grateful if you could share the reported TGI for O=C1c2c(O)cc(O)cc2OC(c2ccc(O)cc2O)C1O (stereo not given) .
Solution: > 100 µM

Exercise: I would be grateful if you could share the reported TGI for "O=C(c1ccc(Br)cc1)n1c2ccc(Br)cc2c2nc3ccccc3nc21" .
Solution: > 100 µM
